assay: self-splicing fitness, log relative to wild type (ln ratio); higher = more splicing; Tetrahymena group I intron in knt gene, E. coli kanamycin selection, DiMSum; sequences stand for … in CUCUCU…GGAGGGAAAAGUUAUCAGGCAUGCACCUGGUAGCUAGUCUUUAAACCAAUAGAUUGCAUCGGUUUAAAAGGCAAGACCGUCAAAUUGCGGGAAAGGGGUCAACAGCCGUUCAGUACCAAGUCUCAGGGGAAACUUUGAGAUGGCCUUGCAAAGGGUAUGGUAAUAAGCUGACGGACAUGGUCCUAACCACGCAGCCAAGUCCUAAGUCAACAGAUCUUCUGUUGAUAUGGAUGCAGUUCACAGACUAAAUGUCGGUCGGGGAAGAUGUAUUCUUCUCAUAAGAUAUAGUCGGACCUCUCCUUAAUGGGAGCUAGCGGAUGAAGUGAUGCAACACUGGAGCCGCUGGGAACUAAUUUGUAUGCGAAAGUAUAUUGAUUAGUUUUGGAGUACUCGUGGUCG; settings: 30 °C;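 further: selection with 25 µg/mL kanamycin versus none on LB agar overnight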
Each entry below lists one item and its recorded self-splicing fitness (ln) value.
Respond with the number and no other words.

Known results for sequences:
Exercise: Check the records and state self-splicing fitness (ln) for AUACAGCAAUAUUACGCAUA
Key: -1.54

Exercise: Check the records and state self-splicing fitness (ln) for AGGCAGCAAUAUUACGGCCU
Key: -3.36

Exercise: Check the records and state self-splicing fitness (ln) for GAGAAGCAAUAUUACGGUAU
Key: -1.67

Exercise: Check the records and state self-splicing fitness (ln) for CGCCAGCAAUAUUACGUCAG
Key: -0.444

Exercise: Check the records and state self-splicing fitness (ln) for GUGGAGCAAUAUUACGACAA
Key: -1.83

---
Exercise: Check the records and state self-splicing fitness (ln) for CGGCAGCAAUAUUACGGAAC
Key: -2.88

Exercise: Check the records and state self-splicing fitness (ln) for UCUGAGCAAUAUUACGAGUA
Key: -2.16

Exercise: Check the records and state self-splicing fitness (ln) for UCCCAGCAAUAUUACGGUGA
Key: -1.57

Exercise: Check the records and state self-splicing fitness (ln) for AUAGAGCAAUAUUACGUGUC
Key: -2.81

Exercise: Check the records and state self-splicing fitness (ln) for AAUUAGCAAUAUUACGCAGG
Key: -2.44

The reported numbers originate from the supplement of paper PMC7877785.
